System: NCI-H460
method description: NCI tumour cell line growth inhibition, 48 h
Where a name gives a salt, the structure may show the parent alone. Calls of active or inactive are those of the source. No stated cut-off is given here; in the data, active = GI50 up to about 1.1 µM and inactive = higher.
Classes to choose from: y for active, n for inactive

Reference set (2 entries):
CCN1c2ccccc2-c2c3c1cc(C)cc3c1ccccc1[n+]2CC: n
CC(CN1c2ccccc2Sc2ccccc21)N(C)C (configuration not stated) [PROMETHAZINE HYDROCHLORIDE]: n

Consider the additional molecule presented here.
Query :: Lab log entry: O=S(=O)(N/N=C1\CC2CCC1C2)c1ccccc1 (configuration not stated) — outcome as called in the assay?
Result :: n

###

System: A498
method description: NCI tumour cell line growth inhibition, 48 h
The source made the active and inactive calls. No stated cut-off is given here; in the data, active = GI50 up to about 1.1 µM and inactive = higher.
Measured GI50 values are reported for all entries that follow.

CCCNC(=O)OCc1c(COC(=O)NCCC)c(-c2ccc(Cl)c(Cl)c2)n2c1CCC2: 1.26 µM (inactive)
CC(=O)Oc1cc(/C=C/c2ccc(O)cc2)cc(OC(C)=O)c1: 25.4 µM (inactive)
CN(C)c1nc(-c2ccccc2)c(C(=O)c2c[nH]c3ccccc23)s1: 9.98 µM (inactive)
O=C1Oc2ccccc2C(=O)/C1=C/NC(=S)Nc1ccccc1: 24.6 µM (inactive)
COc1ccc(C(SCCO)(c2ccccc2)c2ccc(OC)cc2)cc1: 13.9 µM (inactive)
CCOc1ccc(N/C(=C(/C(Cl)=C(/Cl)Nc2ccccc2)[N+](=O)[O-])n2nnc3ccccc32)cc1: > 100 µM (inactive)

Then this compound:
Query :: Name the recorded GI50 of the compound listed here: COC(=O)C1=Cc2c(OC)cc(OC)c(OC)c2[C@H](c2cc(OC)c(OC)cc2OC)C1C(=O)OC (some centres not stated)
Result :: > 100 µM (inactive)

###

System: M14
method description: NCI tumour cell line growth inhibition, 48 h
Calls of active or inactive are those of the source. Rule as the data show it: active = GI50 up to about 1.1 µM and inactive = higher.
observation type: GI50

Answered cases to consult:
CCCCCCCC(=O)OCC1OC(n2cc(F)c(=O)[nH]c2=O)C(N)C(O)C1O (stereo not given): > 100 µM (inactive)
COc1c(CCl)cc(-c2cc(=O)c3ccccc3s2)cc1CCl: > 100 µM (inactive)
CCOC(=O)C1S/C(=N\c2ccc(Cl)cc2Cl)N=C1C (stereo not given): 81.8 µM (inactive)

Query :: Name the recorded GI50 of the compound listed here: N=C(N)N/N=C\c1c(-c2cccc([N+](=O)[O-])c2)nc2sc(Cl)cn12
Result :: 3.49 µM (inactive)

Query :: Name the recorded GI50 of the compound listed here: Nc1nc(CCc2n[nH]c(N)n2)n[nH]1
Result :: > 100 µM (inactive)

###

Tested on: CAKI-1
method description: NCI tumour cell line growth inhibition, 48 h
Active and inactive are the calls of the source. No stated cut-off is given here; in the data, active = GI50 up to about 1.1 µM and inactive = higher. Starred links: 1 amine or outer side, 2 acyl side, 3 side chain; linkers in the order of their positions; H or OH if unused. Non-standard residues stand in square brackets, D forms with d. Residues, ends and D or L forms follow the SMILES beside them. *: point of attachment. X47 = CCC(=O)CC1CC(C)CC(C(=O)[*:2])N1[*:1]; X46 = CCCCCCCCC(C)C(=O)*; Aib = CC(C)(N)C(=O)O; X48 = CC(CN(C)CCO)N*
Classes to choose from: active, inactive

Reference set (5 entries):
CC12CC3CC(C1)CC(N=[N+]=[N-])(C3)C2: inactive
CCC(=O)OCN(C)c1nc(N(C)COC(=O)CC)nc(N(C)COC(=O)CC)n1: inactive
C=CC1=C(C)c2cc3[nH]c(c4c5nc(cc6[nH]c(cc1n2)c(C)c6CC)C=C5C(=O)C4C(=O)OC)C(CCC(=O)OC/C=C(\C)CCCC(C)CCCC(C)CCCC(C)C)C3C.C=CC1=C(C)c2cc3[nH]c(c4c5nc(cc6[nH]c(cc1n2)c(C=O)c6CC)C=C5C(=O)C4C(=O)OC)C(CCC(=O)OC/C=C(\C)CCCC(C)CCCC(C)CCCC(C)C)C3C (stereo unspecified): inactive
CCOC(=O)C(NC(C)=O)(Nc1ccc(S(N)(=O)=O)cc1)C(F)(F)F (stereo unspecified): inactive
C/C(Cl)=N\OC(=O)Nc1ccc(C)cc1: inactive

Consider the additional molecule presented here.
Query :: Lab log entry: CCCCCCCCC(C)C(=O)N1CCCC1C(=O)N1C(CC(=O)CC)CC(C)CC1C(=O)NC(C)C(=O)NC(C)(C)C(=O)NC(C)(C)C(=O)NC(C(=O)NC(C)C(=O)NC(C)(C)C(=O)NC(C)(C)C(=O)NC(C)CN(C)CCO)C(C)CC (stereo unspecified) (X46-P[X47]A[Aib][Aib]IA[Aib][Aib]-X48; configuration not given here) — outcome as called in the assay?
Result :: active

###

Test system: SR
method description: NCI tumour cell line growth inhibition, 48 h
Calls of active or inactive are those of the source. No stated cut-off is given here; in the data, active = GI50 up to about 1.1 µM and inactive = higher.
Measured GI50 values are reported for all entries that follow.

Answered cases to consult:
O=[N+]([O-])C1C2C=CC(C2)[C@H]1c1ccc(Cl)cc1Cl (stereo partly drawn): 35.7 µM (inactive)
O=[N+]([O-])c1nccn1CCCNc1ccnc2cc(Cl)ccc12: 2.81 µM (inactive)
CCC1(O)CC(O)c2c(O)c3c(c(O)c2C1C(=O)OC)C(=O)c1cccc(O)c1C3=O (stereo not drawn): 1.12 µM (inactive)
COc1cc(OC)cc(Oc2nc3ccc(C(F)(F)F)cc3nc2-c2ccccc2)c1: > 100 µM (inactive)
C#C[C@]1(O)CC[C@H]2[C@@H]3CCC4=C/C(=N/OCCN(C)C)CC[C@]4(C)[C@H]3CC[C@@]21C: 12.1 µM (inactive)

Query :: Provide GI50, tested on SR, for O=C(c1ccccc1)c1c(CC(O)c2ccccc2)n(C(=O)c2ccccc2)c2ccccc12 (stereo not drawn) .
Result :: 16.9 µM (inactive)

Query :: Provide GI50, tested on SR, for COc1ccc(CCc2ccc3c(c2)OCO3)cc1 .
Result :: 17.5 µM (inactive)

Query :: Provide GI50, tested on SR, for COc1cc2nc(-c3cccs3)oc(=O)c2cc1OC .
Result :: > 100 µM (inactive)

###

System: UO-31
method description: NCI tumour cell line growth inhibition, 48 h
Calls of active or inactive are those of the source. Cut-off read from the data, not from the text of the source: active = GI50 up to about 1.1 µM and inactive = higher.
observation type: GI50

Answered cases to consult:
CC(=O)C(C(C)=O)[C@H]1OC(C)(C)O[C@H]1[C@H]1COC(C)(C)O1: 49.8 µM (inactive)
CCN1c2ccccc2-c2c3c1cc(C)cc3c1ccccc1[n+]2CC: 7.13 µM (inactive)
COc1cc(C(=O)C2CC3(CCC2(O)c2cc(OC)c(OC)c(OC)c2)CC(=O)Nc2ccccc2C3=O)cc(OC)c1OC (stereo unspecified): 33.7 µM (inactive)
Cc1ccccc1NC(=O)c1nc(S)nc(N)c1-c1ccccc1C: > 100 µM (inactive)

Query :: Name the recorded GI50 of the compound listed here: CCOC(=O)C1(C#N)C(c2ccccc2)CC(O)(c2ccc(Cl)cc2)C(C(=O)c2ccc(Cl)cc2)C1c1ccccc1 (stereo unspecified)
Result :: > 100 µM (inactive)

Query :: Name the recorded GI50 of the compound listed here: CCn1c(=O)c(C(=O)O)c(Cl)c2cc3c(cc21)OCO3
Result :: > 100 µM (inactive)

Query :: Name the recorded GI50 of the compound listed here: CSc1ccc2c(cc1=O)[C@@H](NC(=O)c1cccc([N+](=O)[O-])c1)CCc1cc(O)c(O)c(O)c1-2
Result :: > 100 µM (inactive)

###

System: NCI-H522
method description: NCI tumour cell line growth inhibition, 48 h
Active and inactive are the calls of the source. No stated cut-off is given here; in the data, active = GI50 up to about 1.1 µM and inactive = higher.
observation type: GI50

Answered cases to consult:
OC1(c2ccccc2)CCCCCCCCC(O)(c2ccccc2)CCCCCCCC1 (configuration not stated): > 100 µM (inactive)
COc1cc2nc(-c3cccs3)oc(=O)c2cc1OC: > 100 µM (inactive)
C=C(Cl)/C(=C\Br)CCC(Cl)C(C)C.C=C(Cl)/C(=C\Cl)CCC(Cl)C(C)C (configuration not stated): 4.73 µM (inactive)
O=C(CCOS(=O)(=O)CF)N1CCN(C(=O)CCOS(=O)(=O)CF)CC1: 31.6 µM (inactive)
NC(=O)NC(=O)C1CCCCC1C(=O)O (configuration not stated): > 100 µM (inactive)
COS(=O)CCOC(=O)c1ccccc1SSc1ccccc1C(=O)OCCS(=O)OC (configuration not stated): 4.78 µM (inactive)
COc1cc2c(c(OC)c1OC)-c1ccc(SC)c(=O)cc1C(CC(=O)Oc1ccccc1F)C2 (configuration not stated): 0.0108 µM (active)
CC(NNC(=O)c1cc[n+]([BH2-]C#N)cc1)c1ccc(Cl)cc1Cl (configuration not stated): 28.6 µM (inactive)

Query :: Provide GI50, tested on NCI-H522, for N#CC1C(=O)C(=O)N(c2ccccc2)C1=O (configuration not stated) .
Result :: > 100 µM (inactive)

Query :: Provide GI50, tested on NCI-H522, for COC(=O)CCC1(CCC(=O)OC)CCCCCCC(CCC(=O)OC)(CCC(=O)OC)C(=O)C1=O .
Result :: > 100 µM (inactive)

Query :: Provide GI50, tested on NCI-H522, for CC(C)OC(=O)OCSc1ccccc1/N=C/c1cccc([N+](=O)[O-])c1 .
Result :: > 10 µM (inactive)

Query :: Provide GI50, tested on NCI-H522, for Nc1nc(N)nc(CC(=O)O)n1 .
Result :: > 100 µM (inactive)
